Quick reference for manual score among some molecules
# Experimental target: G protein-activated inward rectifier potassium channel 2 (Homo sapiens) + G protein-activated inward rectifier potassium channel 1 (Homo sapiens) (UniProt P48051+P48549)
# Sequence (P48051 whole entry, looked up): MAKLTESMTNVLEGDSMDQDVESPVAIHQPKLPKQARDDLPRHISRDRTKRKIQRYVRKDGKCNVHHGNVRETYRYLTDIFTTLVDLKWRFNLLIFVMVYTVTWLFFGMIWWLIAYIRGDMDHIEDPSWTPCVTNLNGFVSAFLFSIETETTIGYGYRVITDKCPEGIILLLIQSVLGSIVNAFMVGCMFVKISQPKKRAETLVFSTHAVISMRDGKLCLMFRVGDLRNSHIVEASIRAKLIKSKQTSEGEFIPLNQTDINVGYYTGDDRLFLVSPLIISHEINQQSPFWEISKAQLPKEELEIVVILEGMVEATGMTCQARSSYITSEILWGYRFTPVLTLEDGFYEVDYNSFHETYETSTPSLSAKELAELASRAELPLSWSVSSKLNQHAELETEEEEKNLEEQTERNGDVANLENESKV
# Sequence (P48549 whole entry, looked up): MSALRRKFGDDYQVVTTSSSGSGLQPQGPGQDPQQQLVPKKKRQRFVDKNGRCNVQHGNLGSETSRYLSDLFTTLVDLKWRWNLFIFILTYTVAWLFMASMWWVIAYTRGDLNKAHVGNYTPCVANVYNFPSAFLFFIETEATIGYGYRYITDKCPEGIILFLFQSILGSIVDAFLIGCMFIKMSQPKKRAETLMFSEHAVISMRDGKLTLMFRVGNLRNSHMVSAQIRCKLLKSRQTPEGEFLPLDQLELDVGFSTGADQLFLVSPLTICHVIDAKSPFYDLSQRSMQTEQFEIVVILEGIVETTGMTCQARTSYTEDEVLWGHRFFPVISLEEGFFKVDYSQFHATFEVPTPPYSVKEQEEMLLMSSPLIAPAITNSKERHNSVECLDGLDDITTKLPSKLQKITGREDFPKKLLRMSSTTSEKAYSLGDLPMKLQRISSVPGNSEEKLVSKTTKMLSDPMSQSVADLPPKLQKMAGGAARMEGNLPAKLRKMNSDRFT
# Protocol summary: GIRK1/2 thallium flux modulators, retest, confirmation, cell-based, HEK293 rmGlu8/hGIRK1/2, FluoZin-2 (AID 623911)
# Test settings: HEK293 rmGlu8/hGIRK1/2, thallium flux FluoZin-2; actives lie on both sides; glutamate co-added at its EC20 level
In all, about 2,100 compounds went through this assay and about 770 (37%) were called active. The list shows a part of the results.

# Molecule, manual score
measured = [
    ("COC(=O)CSc1nnc(SCc2ccc(OC)cc2)s1", 0),
    ("CCCc1cc(=O)n2[nH]c(-c3ccc(Br)cc3)cc2n1", 0),
    ("CCCn1c(O)c(N=NC(=O)c2ccco2)c2ccccc21", 1),
    ("COC(=O)CSc1nc2ncccc2[nH]1", 0),
    ("Clc1ccc2c(c1)-c1nnc(Br)n1-c1ccccc1S2", -1),
    ("S=C1Nc2ccccc2Sc2ccc(Cl)cc21", 0),
    ("C=CCn1c(N)c(C(=O)OC(C)(C)C)c2nc3ccccc3nc21", 0),
    ("CCCCn1c(O)c(N=Nc2ccccn2)c2ccccc21", 0),
    ("CCc1cccc(NC(=O)CCSCCC(=O)Nc2cccc(CC)c2)c1", 0),
    ("C=CCOc1cccc(C2/C(=C(/O)c3ccc(C)cc3)C(=O)C(=O)N2CCN2CCOCC2)c1 (configuration not stated)", 0),
    ("Cc1cc(Cl)ccc1OCC(=O)Nc1ccccc1N1CCOCC1", -1),
    ("CCN(c1ccccc1)S(=O)(=O)c1ccc(NC(=S)NC(=O)c2ccc(Br)o2)cc1", 1),
]

* * *

# Experimental target: G protein-activated inward rectifier potassium channel 2 (Homo sapiens) + G protein-activated inward rectifier potassium channel 1 (Homo sapiens) (UniProt P48051+P48549)
# Protocol summary: GIRK1/2 thallium flux modulators, retest, confirmation, cell-based, HEK293 rmGlu8/hGIRK1/2, FluoZin-2 (AID 623911)
# Test settings: HEK293 rmGlu8/hGIRK1/2, thallium flux FluoZin-2; actives lie on both sides; glutamate co-added at its EC20 level
The campaign covered roughly 2,100 compounds. About 770 (37%) were called active. The list shows a part of the results.

# Molecule, manual score
rows = [
    ("Cc1cccc(C)c1NC(=O)C(NC(=O)c1ccccn1)c1ccc([N+](=O)[O-])cc1 (stereo unspecified)", "0 (inactive)"),
    ("Cc1ccc(C2CC2c2n[nH]c(=S)n2-c2ccc(Cl)cc2)cc1 (stereo unspecified)", "0 (inactive)"),
    ("c1ccc2c(c1)oc1c(N3CCN(Cc4ccc5c(c4)OCO5)CC3)ncnc12", "-1 (active)"),
    ("CC(C)(C)c1nnc(N/N=C/c2ccccc2)n(N)c1=O", "0 (inactive)"),
    ("CN1CCN(CC(=O)N2c3ccccc3C(C)(c3ccccc3)CC2(C)C)CC1 (stereo unspecified)", "-1 (active)"),
    ("CCOC(=O)Cn1c(=O)oc2cc(S(=O)(=O)Nc3ccc(N(CC)CC)cc3C)ccc21", "0 (inactive)"),
    ("C=CCNC(=S)Nc1sc2c(c1C(=O)OCC)CC(C(C)C)OC2 (stereo unspecified)", "1 (active)"),
    ("CCCC(=O)n1nc(-c2ccccc2)nc1N", "0 (inactive)"),
    ("CC1(c2ccccc2)CC(C)(C)N2C(=O)/C(=C3\\SC(=S)NC3=O)c3cccc1c32 (stereo unspecified)", "0 (inactive)"),
    ("CC(=O)/C(=N\\Nc1ccc(Cl)cc1Cl)Sc1cccc2cccnc12", "0 (inactive)"),
    ("CC(C)Cn1cnc2c(c(-c3ccccc3)c(-c3ccccc3)n2Cc2ccco2)c1=N", "-1 (active)"),
]

* * *

# Experimental target: G protein-activated inward rectifier potassium channel 2 (Homo sapiens) + G protein-activated inward rectifier potassium channel 1 (Homo sapiens) (UniProt P48051+P48549)
# Protocol summary: GIRK1/2 thallium flux modulators, retest, confirmation, cell-based, HEK293 rmGlu8/hGIRK1/2, FluoZin-2 (AID 623911)
# Test settings: HEK293 rmGlu8/hGIRK1/2, thallium flux FluoZin-2; actives lie on both sides; glutamate co-added at its EC20 level
In all, about 2,100 compounds went through this assay and about 770 (37%) were called active.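 How the source made its calls: active means by-eye trace score of 1 for enhancers or -1 for inhibitors, so actives lie on both sides (some results past the limit were not filed as active); inactive means score 0, or 3 fluorescent, or 4 baseline rise.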 The list shows a part of the results.
Labels: YES = active, NO = inactive

# Compound, Cat
data = [
    ("O=c1cc(Cn2ccnc2)c2cc3c(cc2o1)CCC3", "NO"),
    ("Cc1ccccc1Nc1nc2nonc2nc1N1CCOCC1", "NO"),
    ("CCOC(=O)c1nn(-c2ccc(F)cc2)c(C)c1C(C)=O", "NO"),
    ("O=C(CSc1nnc(-c2cccnc2)o1)OC1CCCCC1", "NO"),
    ("CCN(CC)CCCn1c(=S)[nH]c2cc(Cl)ccc2c1=O", "NO"),
    ("CCc1ccc(Nc2nc3ccccc3c(=O)s2)cc1", "YES"),
    ("CCCCn1c(=S)[nH]c2c(oc3ccc(Cl)cc32)c1=O", "YES"),
    ("CCN(CC)C(=O)CN(c1ccc2c(c1)OCO2)S(C)(=O)=O", "NO"),
    ("CCC(CC)c1nnc(NC(=O)c2ccc3ccccc3n2)s1", "NO"),
    ("COc1cc(NC(=O)c2ccc(C)cc2)c(OC)cc1NC(=O)CN1CCCCC1", "NO"),
    ("CCN(c1ccc2c(c1)OCO2)S(=O)(=O)c1cc(Br)cc2c1N(C(=O)C1CC1)CC2", "YES"),
    ("CCCn1c(C)cc(/C=C(\\C#N)C(=O)OCC(=O)Nc2cccc(OC)c2)c1C", "YES"),
    ("COCCn1nnnc1C(c1ccccc1)N1CCN(c2ccccc2)CC1 (stereo not drawn)", "NO"),
]

* * *

# Experimental target: G protein-activated inward rectifier potassium channel 2 (Homo sapiens) + G protein-activated inward rectifier potassium channel 1 (Homo sapiens) (UniProt P48051+P48549)
# Protocol summary: GIRK1/2 thallium flux modulators, retest, confirmation, cell-based, HEK293 rmGlu8/hGIRK1/2, FluoZin-2 (AID 623911)
# Test settings: HEK293 rmGlu8/hGIRK1/2, thallium flux FluoZin-2; actives lie on both sides; glutamate co-added at its EC20 level
Out of some 2,100 compounds screened, about 770 (37%) were called active.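 The calls were made as follows: active = by-eye trace score of 1 for enhancers or -1 for inhibitors, so actives lie on both sides (some results past the limit were not filed as active); inactive = score 0, or 3 fluorescent, or 4 baseline rise.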 The list shows a part of the results.
Labels: True for active, False for inactive

# Compound, Cat
rows = [
    ("O=c1[nH]c(SCc2ccccc2Cl)nc2c1CCCC2", "False"),
    ("CCCCCNc1nc(-c2ccccc2)cs1", "False"),
    ("CCOc1ccccc1N1CCN(C(=S)NC(=O)C23CC4CC(CC(C4)C2)C3)CC1", "False"),
    ("Cc1noc(C)c1S(=O)(=O)N1CCC(Cc2ccccc2)CC1", "False"),
    ("CC(/C=N/n1c(COc2ccccc2)n[nH]c1=S)=C\\c1ccccc1", "False"),
    ("Cc1cc(N2CCOCC2)n2nc(C)c(-c3ccccc3)c2n1", "False"),
    ("CCCn1c(=O)c2ccccc2n2c(SCc3nc4ccccc4s3)nnc12", "False"),
    ("CCc1cc2cc(C)ccc2nc1SCC(=O)N1CCN(C(=O)c2ccco2)CC1", "False"),
    ("CCN1CCN(c2ccc(NC(=O)CCc3c(C)nc4c(-c5ccccc5)c(C)nn4c3C)cc2)CC1", "False"),
    ("CCCCn1c(SCC(N)=O)nc2c(sc3ccccc32)c1=O", "False"),
    ("COc1ccc(CO/N=C/c2c(C)[nH]c(=O)[nH]c2=O)cc1", "False"),
    ("COC(=O)c1cc(OC)c(OC)cc1NC(=O)Nc1ccc(OC)cc1OC", "False"),
    ("O=C(CSCc1ccc(Br)cc1)N=Nc1c(O)[nH]c2ccccc12", "False"),
    ("Cc1cccc(NC(=S)N2CCC(C(=O)c3ccc(F)cc3)CC2)c1C", "False"),
    ("Cc1cnc(NC(=O)COc2ccccc2Cl)s1", "False"),
    ("COc1ccc(/C=N/NC(=O)c2nc(-c3ccccc3)cc(-c3ccccc3)n2)cc1", "False"),
    ("O=C(Nc1ccc(OCC(=O)N2CCC(Cc3ccccc3)CC2)cc1)c1ccco1", "False"),
    ("S=c1[nH]nc(-c2ccco2)n1/N=C/c1ccc(Br)s1", "False"),
    ("CCCn1nnc(NC(=O)COc2ccc(C3CCCCC3)cc2)n1", "False"),
    ("Cc1cc(-c2n[nH]c(=S)n2/N=C/c2ccc(Br)s2)n[nH]1", "False"),
    ("CCCOc1ccc(/C=N/NC(=O)C(=O)Nc2ccccn2)cc1", "False"),
    ("COCCn1c(=S)[nH]c2cc(C(=O)N3CCN(c4ccc(F)cc4)CC3)ccc2c1=O", "False"),
    ("C/C(=N/NC(=O)c1cc(Cl)ccc1O)C12CC3CC(CC(C3)C1)C2", "False"),
    ("CCOC(=O)C(CC)Sc1nnc2cc(C)c3ccccc3n12 (stereo unspecified)", "False"),
    ("CC(NC(=O)c1ccccc1NC(=O)CSc1nnnn1C)c1ccccc1 (stereo unspecified)", "False"),
    ("Cc1cccc(N2CCN(C(=O)c3ccc(Cl)c(S(=O)(=O)N4CCc5ccccc5C4)c3)CC2)c1C", "False"),
    ("Cc1nc2ccccn2c1-c1csc(NCc2ccco2)n1", "True"),
    ("COCCCNCCCOc1ccc(Cl)cc1Br", "False"),
    ("Cn1cc(S(=O)(=O)Nc2ccc(F)cc2F)c(=O)n(C)c1=O", "False"),
    ("O=C(c1csc2c1CCCC2)N1CCN(c2ccc(F)cc2)CC1", "True"),
    ("Cn1cccc1-c1nc2ccc(NC(=O)c3cccs3)cc2[nH]1", "False"),
    ("CCN(Cc1ccccc1)C(c1ccccn1)c1nnnn1C1CCCCC1 (stereo unspecified)", "True"),
    ("Cc1nn2c(NCCCN(C)C)c3c(nc2c1-c1ccccc1)CCC3", "True"),
    ("CCn1c(SCC(N)=O)nc2c(c1=O)C1(CCCC1)Cc1ccccc1-2", "False"),
    ("CC(Nc1nc(N2CCCCC2)nc2ccccc12)c1ccccc1 (stereo unspecified)", "True"),
    ("CCN(CC)CCn1c(NC(=O)c2ccc(Cl)cc2)nc2ccccc21", "False"),
]
